System: SNB-75 CNS
assay_comment: NCI-60 one-dose screen, 48 h
measurement_parameters: 10 µM unless noted
Compounds without any hit were thinned out: in the full panel of roughly 83,000, 20% have a hit. Active and inactive are the calls of the source. Rule for the calls: active = growth percent below 10; inactive = the rest.
Pick from active, inactive when you respond.

compound	classification
CO[C@H]1/C=C/C=C/C=C/C[C@H](OC(=O)[C@@H](C)NC(=O)C2CCCCC2)[C@H](C)[C@@H](O)/C(C)=C\CCC2=CC(=O)C=C(NC(=O)C1)C2=O	active
Cc1cn(-c2nc3c(c(NCc4ccccc4)n2)COCC3)c2cccc(C(N)=O)c12	inactive
CCCCCC/C=N/Nc1ccc([N+](=O)[O-])cn1	inactive
Cc1ccc[n+](CC(=O)c2cccc3ccccc23)c1	inactive
COc1cc(/C=C\c2cc(/C=C\c3ccc(O)c(OC)c3)n(C(=O)CNc3ccccc3OC)n2)ccc1O	inactive

## Task Write down the call the test reported for this compound. Item: `CCOC(=O)CSc1nnc(-c2cc3c([nH]c4ccccc43)c(-c3cccc(O)c3)n2)n1-c1ccc(C)cc1`
## Result inactive

## Task Write down the call the test reported for this compound. Item: `CC(C)(CCN=C(N)Nc1ccccn1)c1ccc(C(F)(F)F)cc1`
## Result inactive

## Task Write down the call the test reported for this compound. Item: `CCOC(=O)n1cnc2c(Cl)ncnc21`
## Result inactive

## Task Write down the call the test reported for this compound. Item: `O=C1C(SCCO)=C(SCCO)C(=O)N1c1ccc(-c2ccccc2)cc1`
## Result inactive

## Task Write down the call the test reported for this compound. Item: NC(CCCC(N)C(=O)c1ccccc1)C(=O)O (stereo unspecified)
## Result inactive

## Task Write down the call the test reported for this compound. Item: CC(=O)c1ccc2c(c1)C1C=CCC1[C@H](c1cc3c(cc1Br)OCO3)N2 (stereo partly specified)
## Result inactive

---

System: MDA-MB-435 melanoma
assay_comment: NCI-60 one-dose screen, 48 h (100 = growth as untreated, 0 = no growth, -100 = all killed)
measurement_parameters: 10 µM unless noted
Compounds without any hit were thinned out: in the full panel of roughly 83,000, 20% have a hit.
Listing of recorded growth by entry.
Just the number please, in %, no unit attached.

Consider the reported growth for these compounds:
compound	growth, %
CN(C)c1ccc(/C=N/N=C(N)N)cc1	-13.9
O=C(COc1ccc(Cl)cc1)N1CCN(Cc2ccc3c(c2)OCO3)CC1	101
COc1ccc(-c2c(NC(=O)Nc3ccc(Cl)c(C(F)(F)F)c3)cnn2-c2ccc(S(N)(=O)=O)cc2)cc1	24.3
FC(F)(F)c1cn(CCN2CCOCC2)c2ncnc(Cl)c12	56.5
CCc1c(C)c2cc3c(c(C)c2oc1=O)OCC(=O)N3	74.5
c1ccc([Se]CCCN2CCN(CCC[Se]c3ccccc3)CC2)cc1	-44.2
O=C(Nc1cccc(-n2ccc3c(NC(=O)c4ccccc4)nccc32)c1)c1cccc(C(F)(F)F)c1	1.38
Cc1[nH]n(C(=O)c2ccncc2)c(=O)c1N=Nc1ccc(S(=O)(=O)Nc2ccncn2)cc1	117
Fc1ccc(/C=N/n2c(-c3cc(Cl)cc(Cl)c3Cl)nn(CNc3ccc(Cl)nn3)c2=S)cc1	97.9
CCN(CC)C(=O)C1CCN(C(=O)c2ccccc2)CC1	104

Memo: `CCn1c(C)nc([N+](=O)[O-])c1Sc1nc(N)nc2nc[nH]c12` , reported growth: 25.3

Memo: `O=C1C(Cl)=C(Nc2cccc3cc4ccccc4nc23)C(=O)c2ccccc21` , reported growth: 59

Memo: `COc1ccc(-c2nn(-c3ccc(NC(=O)Nc4ccc(Cl)c(Cl)c4)cc3)cc2-c2ccncc2)cc1Cl` , reported growth: 6.69
